Target: Recombinant human MASP2 enzyme (fragment corresponding to amino acids 297-686, C-terminal His Tag) (human, UniProt O00187 297-686)
Sequence (O00187 other isoform, or with tags, fused parts or gaps limits assumed): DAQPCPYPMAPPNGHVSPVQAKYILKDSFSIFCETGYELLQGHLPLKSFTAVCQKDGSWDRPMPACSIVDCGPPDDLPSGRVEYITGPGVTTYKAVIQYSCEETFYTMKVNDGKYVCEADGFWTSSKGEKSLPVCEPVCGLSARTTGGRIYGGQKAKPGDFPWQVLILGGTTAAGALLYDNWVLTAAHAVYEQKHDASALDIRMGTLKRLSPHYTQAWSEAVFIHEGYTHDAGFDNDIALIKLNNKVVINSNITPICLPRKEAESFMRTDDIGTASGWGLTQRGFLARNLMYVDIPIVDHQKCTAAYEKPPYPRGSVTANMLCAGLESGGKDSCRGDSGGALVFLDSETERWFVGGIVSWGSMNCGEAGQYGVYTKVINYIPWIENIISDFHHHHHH
Assay: cell-based or functional assay
Bridge positions count the residues as written; N and C are the ends. Square brackets hold non-standard residues; d marks the D form. Ends that are not written are not given here. * marks the point of attachment. Piperidin‑4‑ylacetic acid = O=C(CC1CCNCC1)*; Oic = O=C(O)[C@@H]1C[C@@H]2CCCC[C@@H]2N1; tBuAla = CC(C)(C)C[C@H](N)C(=O)O; Chg = N[C@H](C(=O)O)C1CCCCC1; Pen = CC(C)(S)[C@H](N)C(=O)O; NMeC = CN[C@@H](CS)C(=O)O; Dap = NC[C@H](N)C(=O)O; Sar = CNCC(=O)O
In this section we review reported human MASP2 IC50 values for a set of binders.
Number in nM, nothing else.

For orientation, consider the following solved cases.
[Dap]ICSRS[tBuAla]PPI[Pen]I-NH2 (disulfide 3-11; N-terminus assumed; SMILES CC[C@H](C)[C@H](NC(=O)[C@H]1NC(=O)[C@H]([C@@H](C)CC)NC(=O)[C@@H]2CCCN2C(=O)[C@@H]2CCCN2C(=O)[C@H](CC(C)(C)C)NC(=O)[C@H](CO)NC(=O)[C@H](CCCNC(=N)N)NC(=O)[C@H](CO)NC(=O)[C@@H](NC(=O)[C@@H](NC(=O)[C@@H](N)CN)[C@@H](C)CC)CSSC1(C)C)C(N)=O) [(Dap)-IC+SRS-((tBu)A)-PPI-(Pen)+I-NH2]    81
Ac-ICSRS[tBuAla]PPI[NMeC]I-NH2 (disulfide 2-10; SMILES CC[C@H](C)[C@H](NC(=O)[C@@H]1CSSC[C@H](NC(=O)[C@@H](NC(C)=O)[C@@H](C)CC)C(=O)N[C@@H](CO)C(=O)N[C@@H](CCCNC(=N)N)C(=O)N[C@@H](CO)C(=O)N[C@@H](CC(C)(C)C)C(=O)N2CCC[C@H]2C(=O)N2CCC[C@H]2C(=O)N[C@@H]([C@@H](C)CC)C(=O)N1C)C(N)=O) [Ac-IC+SRS-((tBu)A)-PPI-((N-Me)C)+I-NH2]    61
[Sar]ICSRSLPP[Chg]CIPD-NH2 (disulfide 3-11; N-terminus assumed; SMILES CC[C@H](C)[C@H](NC(=O)CNC)C(=O)N[C@H]1CSSC[C@@H](C(=O)N[C@H](C(=O)N2CCC[C@H]2C(=O)N[C@@H](CC(=O)O)C(N)=O)[C@@H](C)CC)NC(=O)[C@H](C2CCCCC2)NC(=O)[C@@H]2CCCN2C(=O)[C@@H]2CCCN2C(=O)[C@H](CC(C)C)NC(=O)[C@H](CO)NC(=O)[C@H](CCCNC(=N)N)NC(=O)[C@H](CO)NC1=O) [((N-Me)G)-IC+SRSLPP-(Chg)-C+IPD-NH2]    891
AICSRSLP[Oic]ICI-OH (disulfide 3-11; N-terminus assumed; SMILES CC[C@H](C)[C@H](NC(=O)[C@@H]1CSSC[C@H](NC(=O)[C@@H](NC(=O)[C@H](C)N)[C@@H](C)CC)C(=O)N[C@@H](CO)C(=O)N[C@@H](CCCNC(=N)N)C(=O)N[C@@H](CO)C(=O)N[C@@H](CC(C)C)C(=O)N2CCC[C@H]2C(=O)N2[C@@H](C[C@@H]3CCCC[C@@H]32)C(=O)N[C@@H]([C@@H](C)CC)C(=O)N1)C(=O)O) [AIC+SRSLP-(Oic)-IC+I-OH]    930
{Piperidin‑4‑ylacetic acid}-ICSRS[tBuAla]PPI[NMeC]I-NH2 (disulfide 2-10; SMILES CC[C@H](C)[C@H](NC(=O)[C@@H]1CSSC[C@H](NC(=O)[C@@H](NC(=O)CC2CCNCC2)[C@@H](C)CC)C(=O)N[C@@H](CO)C(=O)N[C@@H](CCCNC(=N)N)C(=O)N[C@@H](CO)C(=O)N[C@@H](CC(C)(C)C)C(=O)N2CCC[C@H]2C(=O)N2CCC[C@H]2C(=O)N[C@@H]([C@@H](C)CC)C(=O)N1C)C(N)=O) [(Piperidin-4-ylacetic acid)-IC+SRS-((tBu)A)-PPI-((N-Me)C)+I-NH2]    32

Recorded human MASP2 IC50 for [Sar]ICSRSLPPICIPD-OH (disulfide 3-11; N-terminus assumed; SMILES CC[C@H](C)[C@H](NC(=O)CNC)C(=O)N[C@H]1CSSC[C@@H](C(=O)N[C@H](C(=O)N2CCC[C@H]2C(=O)N[C@@H](CC(=O)O)C(=O)O)[C@@H](C)CC)NC(=O)[C@H]([C@@H](C)CC)NC(=O)[C@@H]2CCCN2C(=O)[C@@H]2CCCN2C(=O)[C@H](CC(C)C)NC(=O)[C@H](CO)NC(=O)[C@H](CCCNC(=N)N)NC(=O)[C@H](CO)NC1=O) [((N-Me)G)-IC+SRSLPPIC+IPD-OH] , please?
535

The values you see were collected from patent US20210246166A1.
